Molecular target: Baculoviral IAP repeat-containing protein 2 (Homo sapiens)
Assay: Antagonist activity at GST-tagged BIR3 domain of cIAP1 using AbuRPFK-5FAM after 20 mins by fluorescence polarization assay
Format: functional
Value kind: pIC50
Keep it numeric: pIC50 is minus log10 of the concentration in mol/L.

CN[C@@H](C)C(=O)N[C@H](C(=O)N[C@H]1CCCN(Cc2ccccc2)C1)C1CCCCC1 | 5.77
CN[C@@H](C)C(=O)N[C@H](C(=O)N[C@H]1CCCN(CCc2ccc(OC)cc2)C1)C(C)(C)C | 7.05
CN[C@@H](C)C(=O)N[C@H](C(=O)N[C@H]1CCCN([C@@H]2CCCc3ccccc32)C1)C1CCCCC1 | 5.70
CN[C@@H](C)C(=O)N[C@H](C(=O)N[C@H]1CCCN(CCc2ccc(Cl)cc2)C1)C(C)(C)C | 7.62
CN[C@@H](C)C(=O)N[C@H](C(=O)N(C)[C@H]1CCCN(CCc2ccccc2)C1)C1CCCCC1 | 7.36

Field: next compound
Prompt line: Entry CN[C@@H](C)C(=O)N[C@H](C(=O)N[C@H]1CCCN(CCc2cccc(OC)c2)C1)C(C)(C)C has what pIC50?
Response line: 7.28

###

Molecular target: UniProtKB Q13490
Assay: Antagonist activity at GST-tagged BIR3 domain of cIAP1 using AbuRPFK-5FAM after 20 mins by fluorescence polarization assay
Value kind: pIC50
Keep it numeric: pIC50 is minus log10 of the concentration in mol/L.

Solved entries (count: 3):
CN[C@@H](C)C(=O)N[C@H](C(=O)N[C@H]1CCN(CCc2ccccc2)C1)C1CCCCC1 | 6.30
CN[C@@H](C)C(=O)N[C@H](C(=O)N[C@H]1CCN(C(=O)Cc2ccccc2)C1)C1CCCCC1 | 6.11
CN[C@@H](C)C(=O)N[C@H](C(=O)N[C@H]1CCCN(CCc2ccccc2)C1)C1CCCCC1 | 7.40

Prompt line: Entry CN[C@@H](C)C(=O)N[C@H](C(=O)N[C@H]1CCCN(CCc2ccncc2)C1)C(C)(C)C has what pIC50?
Response line: 6.23

###

Target: UniProt:Q13490
Assay: Antagonist activity at cIAP1 in human MDA-MB-231 cells assessed as cIAP1 degradation after 1 hr by ELISA
The reader will find reported pEC50 values listed item by item below.
Keep it numeric: pEC50 is minus log10 of the concentration in mol/L.

Solved entries (count: 3):
CN[C@@H](C)C(=O)N[C@H](C(=O)N[C@H]1CCCN(CCc2cccc(OC)c2)C1)C(C)(C)C | 6.79
CN[C@@H](C)C(=O)N[C@H](C(=O)N[C@H]1CCCN(CCc2ccc(OC)cc2)C1)C(C)(C)C | 6.80
CN[C@@H](C)C(=O)N[C@H](C(=O)N[C@H]1CCCN(CCc2ccccc2)C1)C1CCCCC1 | 6.95

Prompt line: Entry CN[C@@H](C)C(=O)N[C@H](C(=O)N[C@H]1CCCN(CCc2ccc(C(F)(F)F)cc2)C1)C(C)(C)C has what pEC50?
Response line: 6.52

Prompt line: Entry CN[C@@H](C)C(=O)N[C@H](C(=O)N[C@H]1CCCN(CCc2ccc([N+](=O)[O-])cc2)C1)C(C)(C)C has what pEC50?
Response line: 7.22

###

Target: E3 ubiquitin-protein ligase XIAP (Homo sapiens, UniProt P98170)
Assay: Antagonist activity at GST-tagged BIR3 domain of XIAP using AbuRPFK-5FAM after 20 mins by fluorescence polarization assay
Value kind: IC50 (nM)
Give the number; nM is assumed, so skip it.

Prompt line: Entry CN[C@@H](C)C(=O)N[C@H](C(=O)N[C@H]1C[C@@H]2CC[C@H]1N(CCc1ccccc1)C2)C1CCCCC1 has what IC50?
Response line: 365

###

Biological target: Baculoviral IAP repeat-containing protein 2 (Homo sapiens)
Assay: Antagonist activity at GST-tagged BIR3 domain of cIAP1 using AbuRPFK-5FAM after 20 mins by fluorescence polarization assay
Label TRUE when IC50 < 400 nM; otherwise FALSE.

Here's what some known entries look like.
CN[C@@H](C)C(=O)N[C@H](C(=O)N[C@H]1CCCN(C(=O)OCc2ccccc2)C1)C1CCCCC1 | FALSE
CN[C@@H](C)C(=O)N[C@H](C(=O)N[C@H]1CCCN(CCc2c[nH]c3ccccc23)C1)C(C)(C)C | TRUE
CN[C@@H](C)C(=O)N[C@H](C(=O)N[C@H]1CCN(C(=O)OCc2ccccc2)C1)C1CCCCC1 | FALSE
CN[C@@H](C)C(=O)N[C@H](C(=O)N[C@H]1C[C@@H]2CC[C@H]1N(CCc1ccccc1)C2)C1CCCCC1 | TRUE
CN[C@@H](C)C(=O)N[C@H](C(=O)N[C@H]1CCCN(CC(c2ccccc2)c2ccccc2)C1)C1CCCCC1 | TRUE

Continue with the next molecule.
Prompt line: Dear colleague, could you confirm whether IC50 of CN[C@@H](C)C(=O)N[C@H](C(=O)N[C@H]1CCCN(CCc2ccccc2F)C1)C1CCCCC1 falls below 400 nM? Thanks.
Response line: TRUE

###

Biological target: Baculoviral IAP repeat-containing protein 2 (Homo sapiens, UniProt Q13490)
Assay: Antagonist activity at cIAP1 in human MDA-MB-231 cells assessed as cIAP1 degradation after 1 hr by ELISA
Format: functional, cell-based
Value kind: pEC50
Keep it numeric: pEC50 is minus log10 of the concentration in mol/L.

Solved entries (count: 2):
CN[C@@H](C)C(=O)N[C@H](C(=O)N[C@H]1CCCN(CCc2ccc(F)cc2)C1)C1CCCCC1 | 7.24
CN[C@@H](C)C(=O)N[C@H](C(=O)N[C@H]1CCCN(CCc2ccc(O)cc2)C1)C(C)(C)C | 7.17

Prompt line: Entry CN[C@@H](C)C(=O)N[C@H](C(=O)N[C@H]1CCCN(CCc2cccc(F)c2)C1)C1CCCCC1 has what pEC50?
Response line: 6.55

Prompt line: Entry CN[C@@H](C)C(=O)N[C@H](C(=O)N[C@H]1CCCN(CCc2ccccc2OC)C1)C(C)(C)C has what pEC50?
Response line: 6.81

Prompt line: Entry CN[C@@H](C)C(=O)N[C@H](C(=O)N[C@H]1CCCN(CCc2ccc(Br)cc2)C1)C(C)(C)C has what pEC50?
Response line: 7.15

Prompt line: Entry CN[C@@H](C)C(=O)N[C@H](C(=O)N[C@H]1CCCN(CCc2ccc(F)cc2)C1)C(C)(C)C has what pEC50?
Response line: 7.22

Prompt line: Entry CN[C@@H](C)C(=O)N[C@H](C(=O)N[C@H]1CCCN(CCc2ccccc2F)C1)C1CCCCC1 has what pEC50?
Response line: 6.98

Prompt line: Entry CN[C@@H](C)C(=O)N[C@H](C(=O)N[C@H]1CCCN(CCc2ccc(Cl)cc2)C1)C(C)(C)C has what pEC50?
Response line: 6.93

Prompt line: Entry CN[C@@H](C)C(=O)N[C@H](C(=O)N[C@H]1CCCN(CCc2ccc(C)cc2)C1)C(C)(C)C has what pEC50?
Response line: 7.22

Prompt line: Entry CN[C@@H](C)C(=O)N[C@H](C(=O)N[C@H]1CCCN(CCc2c[nH]c3ccccc23)C1)C(C)(C)C has what pEC50?
Response line: 6.73

Prompt line: Entry CN[C@@H](C)C(=O)N[C@H](C(=O)N[C@H]1C[C@@H]2CC[C@H]1N(CCc1ccccc1)C2)C1CCCCC1 has what pEC50?
Response line: 8.30

###

Biological target: Baculoviral IAP repeat-containing protein 2 (Homo sapiens, UniProt Q13490)
Assay: Antagonist activity at GST-tagged BIR3 domain of cIAP1 using AbuRPFK-5FAM after 20 mins by fluorescence polarization assay
Value kind: IC50 (nM)
Give the number; nM is assumed, so skip it.

Solved entries (count: 3):
CN[C@@H](C)C(=O)N[C@H](C(=O)N[C@H]1CCCN(CCc2ccc([N+](=O)[O-])cc2)C1)C(C)(C)C | 32
CN[C@@H](C)C(=O)N[C@H](C(=O)N[C@H]1CCCN(CCc2ccc(F)cc2)C1)C1CCCCC1 | 18
CN[C@@H](C)C(=O)N[C@H](C(=O)N[C@H]1CCN(Cc2ccccc2)C1)C1CCCCC1 | 3380

Prompt line: Entry CN[C@@H](C)C(=O)N[C@H](C(=O)N[C@H]1CCCN(CCc2ccc(C(F)(F)F)cc2)C1)C(C)(C)C has what IC50?
Response line: 49

###

The reader will find reported log10(IC50) values listed item by item below.
Target: Baculoviral IAP repeat-containing protein 2 (Homo sapiens, UniProt Q13490)
Experiment: Antagonist activity at GST-tagged BIR3 domain of cIAP1 using AbuRPFK-5FAM after 20 mins by fluorescence polarization assay
Please keep in mind that the values are log10 of IC50 expressed in nM.

CN[C@@H](C)C(=O)N[C@H](C(=O)N[C@H]1CCCN(CCc2cccc(F)c2)C1)C1CCCCC1 | 1.83
CN[C@@H](C)C(=O)N[C@H](C(=O)N[C@H]1CCCN(CCc2ccc(Br)cc2)C1)C(C)(C)C | 1.38
CN[C@@H](C)C(=O)N[C@H](C(=O)N[C@H]1CCCN(CCc2ccc(O)cc2)C1)C(C)(C)C | 1.62
CN[C@@H](C)C(=O)N[C@H](C(=O)N[C@H]1CCN(CCCc2ccccc2)C1)C1CCCCC1 | 2.87
CN[C@@H](C)C(=O)N[C@H](C(=O)N[C@H]1CCCCN(CCc2ccccc2)C1)C1CCCCC1 | 1.90
CN[C@@H](C)C(=O)N[C@H](C(=O)N[C@H]1CCCN(CCc2ccccc2OC)C1)C(C)(C)C | 1.70

Prompt line: Entry CN[C@@H](C)C(=O)N[C@H](C(=O)N[C@H]1CCCN(C(=O)Cc2ccccc2)C1)C1CCCCC1 has what log10(IC50)?
Response line: 2.11

Prompt line: Entry CN[C@@H](C)C(=O)N[C@H](C(=O)N[C@H]1CCN(C(=O)c2ccccc2)C1)C1CCCCC1 has what log10(IC50)?
Response line: 3.70

Prompt line: Entry CN[C@@H](C)C(=O)N[C@H](C(=O)N[C@H]1CCCN(CCCc2ccccc2)C1)C1CCCCC1 has what log10(IC50)?
Response line: 2.90

Prompt line: Entry CN[C@@H](C)C(=O)N[C@H](C(=O)N[C@H]1CCCN(CCc2ccc(C)cc2)C1)C(C)(C)C has what log10(IC50)?
Response line: 1.48

Origin of the recorded values: ChEMBL document CHEMBL1949628
